tested on: wild poinsettia (Euphorbia heterophylla); test: Preemergence herbicidal activity; assay type: in vivo; conditions: 35 g/Ha; scored after 3 weeks; 0 no injury, 100 complete kill or no germination
Measured Preemergence herbicidal activity EPHHL values are reported for all entries that follow.
assay_endpoint: Preemergence herbicidal activity EPHHL

[[record]]
test_smiles = "CCOc1nccc(C(F)(F)F)c1S(=O)(=O)Nc1nc2nc(OC)cc(OC)n2n1"
observed_result = "50%"

[[record]]
test_smiles = "COc1cc(OC)n2nc(NS(=O)(=O)c3cc(Cl)ccc3OCCF)nc2n1"
observed_result = "50%"

[[record]]
test_smiles = "CCOc1ccc(C)cc1S(=O)(=O)Nc1nc2nc(OC)cc(OC)n2n1"
observed_result = "40%"

[[record]]
test_smiles = "COc1cc(OC)n2nc(NS(=O)(=O)c3c(C(F)(F)C(F)(F)F)ccnc3OC)nc2n1"
observed_result = "70%"

[[record]]
test_smiles = "COc1cc(OC)n2nc(NS(=O)(=O)c3cc(C)ccc3OC)nc2n1"
observed_result = "80%"

